# Target Or System: Enoyl-[acyl-carrier-protein] reductase [NADPH] FabI (Staphylococcus aureus, UniProt Q6GI75)
For each record, check the reported IC50: if it is below 200 nM write class 1, else write class 0.

| Smiles | Class Name |
| --- | --- |
| Cc1c(C2CN(C(=O)/C=C/c3cnc4c(c3)CN(CCN3CCOCC3)C(=O)N4)C2)oc2ccccc12 | class 1 |
| O=C1CCc2cc(/C=C/C(=O)N3CC(c4nc5ccccc5s4)C3)cnc2N1 | class 0 |
| O=C1CCc2cc(/C=C/C(=O)N3CC(OCc4ccccc4)C3)cnc2N1 | class 0 |

I wonder whether `O=C1CCc2cc(/C=C/C(=O)N3CC(c4ccccn4)C3)cnc2N1` has IC50 below 200 nM. Can you tell? class 0

###

# Test Protocol: Cmax in Swiss albino CD-1 mouse at 10 mg/kg, po administered as single dose
# Assay type: ADME, organism-based
# Parameters: dose 10 mg/kg, route oral
# Assay Context: in vivo
// values below are reported Cmax
Write the value in ng/mL as a bare number.

| Smiles | Unit Descriptor | Cmax |
| --- | --- | --- |
| Cc1c(CN(C)C(=O)/C=C/c2cnc3c(c2)CCC(=O)N3)oc2ccccc12 | ng/mL | 440 |

Moving on to the next compound.
Quick note, Cmax for `Cc1c(C2CN(C(=O)/C=C/c3cnc4c(c3)CNCC(=O)N4)C2)oc2ccccc12` landed at 2250

###

# inhibition per record follows
# Target Or System: Enoyl-[acyl-carrier-protein] reductase [NADPH] FabI (Staphylococcus aureus) (UniProt Q6GI75)
# Test Protocol: Inhibition of Staphylococcus aureus FabI-mediated reduction of enoyl-ACP preincubated at 1 uM for 30 mins measured after 2 hrs by spectrophotometry
Numeric answer only, unit % assumed.

Use these answered entries as a reference point.
| Smiles | inhibition / % |
| --- | --- |
| Cc1c(C2CN(C(=O)/C=C/c3cnc4c(c3)CN(CCN3CCOCC3)CC(=O)N4)C2)oc2ccccc12 | 100 |
| O=C1CCc2cc(/C=C/C(=O)N3CC(Cc4nc5ccccc5s4)C3)cnc2N1 | 41 |
| O=C1CCc2cc(/C=C/C(=O)N3CC(COc4ccc5ccccc5c4)C3)cnc2N1 | 68 |
| Cc1c(C2CN(C(=O)/C=C/c3cnc4c(c3)CN(C)CC(=O)N4)C2)oc2ccccc12 | 99 |

Noted for `O=C1CCc2cc(/C=C/C(=O)N3CC(OCc4ccccc4)C3)cnc2N1` : its inhibition reads 69

###

# Target Or System: Enoyl-[acyl-carrier-protein] reductase [NADPH] FabI (Staphylococcus aureus, UniProt Q6GI75)
# Sequence (Q6GI75 whole entry): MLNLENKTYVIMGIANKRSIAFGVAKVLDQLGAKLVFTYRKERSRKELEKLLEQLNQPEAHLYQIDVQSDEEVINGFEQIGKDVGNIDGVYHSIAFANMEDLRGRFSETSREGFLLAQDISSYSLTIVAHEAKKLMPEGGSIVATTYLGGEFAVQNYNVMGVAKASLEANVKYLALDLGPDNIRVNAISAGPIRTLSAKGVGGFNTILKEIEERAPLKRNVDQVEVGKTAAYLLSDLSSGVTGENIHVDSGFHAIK
Quantity: log10(IC50) (log10 of the value in nM)
Values reflect log10 of reported IC50 (nM).

Guide cases for log10(IC50), answers given:
| Smiles | log10(IC50) |
| --- | --- |
| Cc1c(C2CN(C(=O)/C=C/c3cnc4c(c3)CCC(=O)N4)C2)sc2ccccc12 | 2.85 |
| Cc1c(CN(C)C(=O)/C=C/c2cnc3c(c2)CCC(=O)N3)oc2ccccc12 | 1.46 |
| Cc1c(C2CN(C(=O)/C=C/c3ccc(NC(=O)Cn4ccnn4)nc3)C2)oc2ccccc12 | 2.93 |
| Cc1c(C2CN(C(=O)/C=C/c3cnc4c(c3)CNCC(=O)N4)C2)oc2ccccc12 | 2.58 |
| Cc1c(C2CN(C(=O)/C=C/c3cnc4c(c3)NCCC(=O)N4)C2)oc2ccccc12 | 2.50 |
| Cc1ccccc1OCC1CN(C(=O)/C=C/c2cnc3c(c2)CCC(=O)N3)C1 | 2.25 |
| O=C1CCc2cc(/C=C/C(=O)N3CC(COc4ccccc4)C3)cnc2N1 | 2.42 |
| CC(=O)Nc1ccc(/C=C/C(=O)N2CC(c3oc4ccccc4c3C)C2)cn1 | 2.21 |

Entry under test: `Cc1ccc(OCC2CN(C(=O)/C=C/c3cnc4c(c3)CCC(=O)N4)C2)cc1` . Its log10(IC50) was 2.96

###

Listed here: items and their measured MIC.
# Tested on: Staphylococcus aureus
# Test Protocol: Antibacterial activity against methicillin-sensitive Staphylococcus aureus ATCC 29213 after 16 to 20 hrs by broth microdilution method
# Assay type: functional
Kindly provide the numeric value in µg/mL only, without the unit symbol.

| Smiles | MIC / µg/mL |
| --- | --- |
| O=C1CCc2cc(/C=C/C(=O)N3CC(c4nc5ccccc5s4)C3)cnc2N1 | 0.25 |

The record that follows has no MIC shown yet.
For this compound ( `CC(=O)Nc1ccc(/C=C/C(=O)N2CC(c3oc4ccccc4c3C)C2)cn1` ), measured MIC is 1

###

# Tested on: Staphylococcus aureus
# Test Protocol: Antibacterial activity against methicillin-sensitive Staphylococcus aureus ATCC 29213 after 16 to 20 hrs by broth microdilution method
# Format: functional
Quantity: MIC (µg/mL)
Give just the number in µg/mL; leave the unit off.

| Smiles | Target Or System | Quantity | Unit Descriptor | Measurement |
| --- | --- | --- | --- | --- |
| Cc1c(C2CN(C(=O)/C=C/c3cnc4c(c3)CCC(=O)N4)C2)oc2ccc(Cl)cc12 | Staphylococcus aureus | MIC | µg/mL | 0.25 |
| O=C1CCc2cc(/C=C/C(=O)N3CC(Oc4ccccc4)C3)cnc2N1 | Staphylococcus aureus | MIC | µg/mL | 4 |
| Cc1ccccc1OCC1CN(C(=O)/C=C/c2cnc3c(c2)CCC(=O)N3)C1 | Staphylococcus aureus | MIC | µg/mL | 0.25 |

# ---- query compound ----
response.value for `Cc1c(C2CN(C(=O)/C=C/c3cnc4c(c3)CN(CCN3CCOCC3)CC(=O)N4)C2)oc2ccccc12` (field: MIC) = 1

###

# Test system: Staphylococcus aureus
# Test Protocol: Antibacterial activity against methicillin-resistant Staphylococcus aureus ATCC 33591 after 16 to 20 hrs by broth microdilution method
# Type: functional
Note to self: MIC under 1 µg/mL means Condition met, ties and anything higher get Condition not met.

| Smiles | Class Name |
| --- | --- |
| Cc1c(C2CN(C(=O)/C=C/c3cnc4c(c3)CN(C)CC(=O)N4)C2)oc2ccccc12 | Condition met |
| O=C1CCc2cc(/C=C/C(=O)N3CC(c4ccccc4)C3)cnc2N1 | Condition not met |
| O=C1CCc2cc(/C=C/C(=O)N3CC(COc4cccc(F)c4)C3)cnc2N1 | Condition not met |
| O=C1CCc2cc(/C=C/C(=O)N3CC(Oc4nc5ccccc5s4)C3)cnc2N1 | Condition not met |
| Cc1c(C2CN(C(=O)/C=C/c3cnc4c(c3)CCC(=O)N4)C2)sc2ccccc12 | Condition met |

Find out if reported MIC for `Cc1c(C2CN(C(=O)/C=C/c3ccc(NC(=O)Cn4ccnn4)nc3)C2)oc2ccccc12` is less than 1 µg/mL Condition not met

Given `O=C1CCc2cc(/C=C/C(=O)N3CC(COc4ccc5ccccc5c4)C3)cnc2N1` , is recorded MIC strictly lower than 1 µg/mL? Condition not met

###

# Test system: Staphylococcus aureus
# Test Protocol: Antibacterial activity against methicillin-sensitive Staphylococcus aureus ATCC 29213 after 16 to 20 hrs by broth microdilution method
# Type: functional
Quantity: MIC (µg/mL)
// units = µg/mL; emit number, no label

Examples with their reported MIC follow.
| Smiles | MIC [µg/mL] |
| --- | --- |
| Cc1c(C2CN(C(=O)/C=C/c3cnc4c(c3)CCC(=O)N4)C2)sc2ccccc12 | 0.125 |
| Cc1c(C2CN(C(=O)/C=C/c3cnc4c(c3)CNCC(=O)N4)C2)oc2ccccc12 | 0.25 |
| O=C1CCc2cc(/C=C/C(=O)N3CC(COc4ccccc4)C3)cnc2N1 | 0.25 |

Record `O=C1CCc2cc(/C=C/C(=O)N3CC(COc4cccc(F)c4)C3)cnc2N1` , field MIC: 1

The compound identified as `O=C1CCc2cc(/C=C/C(=O)N3CC(Cc4nc5ccccc5s4)C3)cnc2N1` registered its MIC at 2

Please fill in: MIC reported for `O=C1CCc2cc(/C=C/C(=O)N3CC(COc4ccccc4F)C3)cnc2N1` = 1

Consider `O=C1CCc2cc(/C=C/C(=O)N3CC(COc4ccc(F)cc4)C3)cnc2N1` . Its measured MIC is 0.25

###

# System: Staphylococcus aureus
# Test Protocol: Antibacterial activity against methicillin-resistant Staphylococcus aureus ATCC 33591 after 16 to 20 hrs by broth microdilution method
# Assay type: functional
Criterion: MIC strictly under 1 µg/mL. Met: t. Not met: f.

Worked set:
| Smiles | Class Name |
| --- | --- |
| O=C1CCc2cc(/C=C/C(=O)N3CC(Oc4ccccc4)C3)cnc2N1 | f |
| Cc1cc(C2CN(C(=O)/C=C/c3cnc4c(c3)CCC(=O)N4)C2)nc2ccccc12 | f |
| Cc1c(C2CN(C(=O)/C=C/c3cnc4c(c3)NCCC(=O)N4)C2)oc2ccccc12 | t |

Given `O=C1CCc2cc(/C=C/C(=O)N3CC(Cc4nc5ccccc5s4)C3)cnc2N1` , is recorded MIC strictly lower than 1 µg/mL? f

Is 1 µg/mL strictly greater than the molecule's reported MIC? molecule: `O=C1CCc2cc(/C=C/C(=O)N3CC(OCc4ccccc4)C3)cnc2N1` f

Please determine if `Cc1c(C2CN(C(=O)/C=C/c3cnc4c(c3)CCC(=O)N4)C2)oc2ccccc12` is below 1 µg/mL in terms of MIC. t

Say whether its MIC is strictly beneath 1 µg/mL. Entry: `O=C1CCc2cc(/C=C/C(=O)N3CCC3)cnc2N1` f

For this molecule, is MIC lower than 1 µg/mL? `Cc1ccccc1OCC1CN(C(=O)/C=C/c2cnc3c(c2)CCC(=O)N3)C1` t
